Values were extracted from patent US20100120858A1.

Structures can show the parent of a compound that is named as a salt.
Ki, UniProt:P31645: measured values
Sequence (P31645 whole entry): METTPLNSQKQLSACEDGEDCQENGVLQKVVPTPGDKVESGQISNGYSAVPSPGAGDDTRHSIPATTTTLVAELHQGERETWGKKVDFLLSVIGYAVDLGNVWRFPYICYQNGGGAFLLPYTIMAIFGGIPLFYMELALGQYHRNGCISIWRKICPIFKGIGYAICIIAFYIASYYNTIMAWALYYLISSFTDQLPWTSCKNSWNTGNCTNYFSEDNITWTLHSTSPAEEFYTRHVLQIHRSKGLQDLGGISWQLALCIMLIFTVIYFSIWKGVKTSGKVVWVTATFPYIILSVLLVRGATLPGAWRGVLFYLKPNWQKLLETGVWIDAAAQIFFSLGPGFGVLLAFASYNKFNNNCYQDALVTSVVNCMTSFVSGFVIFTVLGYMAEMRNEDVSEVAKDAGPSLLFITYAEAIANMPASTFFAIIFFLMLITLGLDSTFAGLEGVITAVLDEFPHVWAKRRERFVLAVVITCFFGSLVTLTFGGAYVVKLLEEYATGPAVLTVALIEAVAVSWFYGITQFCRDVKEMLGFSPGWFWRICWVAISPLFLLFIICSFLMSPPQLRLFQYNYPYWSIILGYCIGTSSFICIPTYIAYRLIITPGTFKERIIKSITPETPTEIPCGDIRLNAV
observation_type: Ki (nM)

compound="O=C(O)/C=C/C(=O)O.c1ccc(Oc2ncccc2OC[C@@H]2CCCNC2)cc1 [Example 94]" unit_name=nM quantitative_readout=4700
compound="CC(C)COc1ccccc1OCC1CCCNC1.Cl (stereo not drawn) [Example 102, hydrochloride]" unit_name=nM quantitative_readout=3960

[a] CC[C@H](Oc1cccnc1Oc1ccc(F)cc1)[C@H]1CCCNC1 [Example 85]
[b] COc1cc(Cl)ccc1Oc1cc(C(F)(F)F)ccc1OC[C@H]1CCCNC1 [Example 35]
[c] Fc1ccc(OC[C@H]2CCCNC2)c(Oc2ccccc2)c1.O=C(O)/C=C/C(=O)O [Example 46]
[d] COCCOc1ccccc1O[C@@H](C)[C@H]1CCCNC1 [Example 113, hydrochloride]
[e] CC(C)COc1ccccc1O[C@@H](C)[C@H]1CCCNC1 [Example 109]
Please list these compounds in decreasing order of Ki. Answer format: the labels, in the requested order.
d, a, e, c, b

[P] Fc1cc(Oc2ncccc2OC[C@H]2CCCNC2)ccc1Cl.O=C(O)/C=C/C(=O)O [Example 69]
[Q] Cc1ccc(OC[C@H]2CCCNC2)c(Oc2ccc(Cl)cc2)n1 [Example 13]
Problem: Given the entries P and Q , determine which has the lower reported Ki. Please reply using the label of the selected record.
Q
(Q: 140 nM, P: 5500 nM)
